FYI, the data here is from PubChem BioAssay (Tox21).

testDescription: p53 small molecule agonists, cell-based qHTS assay with human liver microsomes (AID 1963577);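 further: p53 response element beta-lactamase reporter cells with liver microsomes plus NADPH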
assayContext: HCT-116 p53RE-bla with human liver microsomes, ratio, 16 h; series mostly up to 66 µM
Records with an inconclusive call do not appear. Activity calls are given as the source filed them. The call rests on the fitted dose curve.
measuredProperty: activation

These solved cases illustrate the format of a correct answer.
{"compound": "O=C(CS)Nc1ccccc1", "result": "inactive"}
{"compound": "CCC(=O)O[C@]1(C(=O)COC)[C@@H](C)C[C@H]2[C@@H]3CCC4=CC(=O)C=C[C@]4(C)C3(F)[C@@H](O)C[C@@]21C (stereo partly specified)", "result": "inactive"}
{"compound": "C/C=C/C=C/COC(=O)C(C)C", "result": "inactive"}
{"compound": "O=P(O)(O)C(O)(Cc1cccnc1)P(=O)(O)O", "result": "inactive"}
{"compound": "CCCC(=O)OC(=O)CCC", "result": "inactive"}
{"compound": "CC(C)(C)NCC(O)COc1cccc2c1CCC(=O)N2 (stereo unspecified)", "result": "inactive"}
{"compound": "Cc1cc(C(C)(C)C)c(O)c(C)c1Cn1c(=O)n(Cc2c(C)cc(C(C)(C)C)c(O)c2C)c(=O)n(Cc2c(C)cc(C(C)(C)C)c(O)c2C)c1=O", "result": "inactive"}
{"compound": "Nc1cccc(S(=O)(=O)O)c1", "result": "inactive"}

(Q) Look up and state reported activation for CC(=O)C(C)=O
(A) inactive

(Q) Look up and state reported activation for CC1(C)CC(N)CC(C)(C)N1
(A) inactive

(Q) Look up and state reported activation for C1CCN2C[C@@H]3C[C@@H](CN4CCCC[C@@H]34)[C@H]2C1
(A) inactive

----------
target: Gonadotropin-releasing hormone receptor (Homo sapiens)
testDescription: Human gonadotropin-releasing hormone receptor (GnRHR) small molecule agonists, calcium flux assay in GnRHR-HEK293 cells (AID 1920063); further: nearly all actives have a fitted effect of over 35% in size
assayContext: calcium flux fluorescence, agonist mode; series mostly up to 57.6 µM
Calls of active or inactive are those of the source. Calls come from the whole dose curve.
measuredProperty: activity change

These solved cases illustrate the format of a correct answer.
{"molecule": "CC(C)C(O)C(C)(C)CO (centres undefined)", "target": "Gonadotropin-releasing hormone receptor (Homo sapiens)", "measuredProperty": "activity change", "result": "inactive"}
{"molecule": "Nc1ccn([C@@H]2O[C@H](CO)[C@@H](O)C2(F)F)c(=O)n1", "target": "Gonadotropin-releasing hormone receptor (Homo sapiens)", "measuredProperty": "activity change", "result": "inactive"}
{"molecule": "CC1=C2[C@H](/C=C(\\C)C(=O)O)CC[C@@H](C)[C@H]2CC1", "target": "Gonadotropin-releasing hormone receptor (Homo sapiens)", "measuredProperty": "activity change", "result": "inactive"}
{"molecule": "CCCCC/C=C\\CCC=O", "target": "Gonadotropin-releasing hormone receptor (Homo sapiens)", "measuredProperty": "activity change", "result": "inactive"}
{"molecule": "CC(C(O)c1ccc(O)cc1)N1CCC(Cc2ccccc2)CC1 (centres undefined)", "target": "Gonadotropin-releasing hormone receptor (Homo sapiens)", "measuredProperty": "activity change", "result": "inactive"}
{"molecule": "CC(C)CCOC(=O)CC(C)C", "target": "Gonadotropin-releasing hormone receptor (Homo sapiens)", "measuredProperty": "activity change", "result": "inactive"}

(Q) Look up and state reported activity change for CC(=O)NCCCCCC(=O)O
(A) inactive

(Q) Look up and state reported activity change for CCCCCCCCCCCCCCCCCCN(C)C
(A) inactive
